Some molecules, each annotated with its measured IC50.
system: BTK (Homo sapiens (Human), UniProt Q06187)
Sequence (Q06187 whole entry, species assumed): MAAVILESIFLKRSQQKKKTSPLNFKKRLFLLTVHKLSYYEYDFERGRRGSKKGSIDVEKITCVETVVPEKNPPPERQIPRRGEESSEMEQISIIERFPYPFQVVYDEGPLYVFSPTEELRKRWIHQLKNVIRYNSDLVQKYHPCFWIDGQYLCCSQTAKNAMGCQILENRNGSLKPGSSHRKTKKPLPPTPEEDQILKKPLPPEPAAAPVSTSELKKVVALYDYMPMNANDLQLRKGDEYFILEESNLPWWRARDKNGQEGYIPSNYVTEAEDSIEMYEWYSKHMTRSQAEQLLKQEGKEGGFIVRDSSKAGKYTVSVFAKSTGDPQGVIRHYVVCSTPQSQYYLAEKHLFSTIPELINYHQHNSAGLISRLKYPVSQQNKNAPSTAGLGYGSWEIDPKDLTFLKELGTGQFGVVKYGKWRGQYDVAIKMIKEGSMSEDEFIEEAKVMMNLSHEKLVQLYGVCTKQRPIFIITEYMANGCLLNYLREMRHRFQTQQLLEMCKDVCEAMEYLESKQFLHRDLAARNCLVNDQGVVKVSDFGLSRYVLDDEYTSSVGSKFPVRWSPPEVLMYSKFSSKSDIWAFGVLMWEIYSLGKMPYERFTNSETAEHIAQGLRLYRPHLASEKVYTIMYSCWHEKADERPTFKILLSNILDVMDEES
experiment: Btk kinase assay (HTRF)
Type: biochemical
condition-summary: [ATP]=80 μM, BTK=3.4 nM; read-out: BTK Inhibition

{"columns": ["molecule", "IC50"],
 "data": [
  ["C=CC(=O)N1CCC[C@@H](n2nc(-c3ccc(Oc4cccc(Cl)c4C)cc3)c3cnccc32)C1 [Compound 56]", "10 to 100 nM"],
  ["C=CC(=O)N1CCC[C@H](n2nc(-c3ccc(C(=C)c4ccccc4)cc3)c3cnccc32)C1 [Compound 95]", "10 to 100 nM"],
  ["C=CC(=O)N1CC[C@@H](n2nc(-c3ccc(N4CCN(C)CC4)cc3)c3cnccc32)C1 [Compound 112]", "100 to 1000 nM"],
  ["C=CC(=O)N1CC[C@@H](n2nc(-c3ccc(Oc4cccc(C)c4F)cc3)c3cnccc32)C1 [Compound 47]", "< 10 nM"]
]}
